Test: Photophysical property characterization (absorption/emission spectra, quantum yield)
Type: physicochemical
Details: acetonitrile (MeCN); in M-1·cm-1 (unit assumed)
// values below are reported ε
Respond numerically, and do not add a unit to the figure.

Sample records with ε:
COc1cc(OCc2ccccn2)ccc1/C=C/c1cc(/C=C/c2ccc3cc[nH]c3c2)[nH]n1	92780
Cc1ccc(-n2c(/C=C\c3ccc(F)c(F)c3)nc3ccccc3c2=O)c(C)c1	20200
Cn1c(C(=O)Nc2ccc(OC(F)(F)F)cc2)cc2c(=O)n3ccccc3nc21	19800
Cc1ccc(Cl)cc1NC(=O)c1cc2c(=O)n3cccc(C)c3nc2n1C	19600

Proceed to the following item.
-- ask Tell us which ε value is on record for `COC1=CC(c2cc3ccccc3[nH]2)=N/C1=C\c1[nH]c(C)cc1C`
-- reply 38920
